system: HCT116 WT cells; test: HCT116 WT cell proliferation / viability (CellTiter-Glo, 6 days); type: cell-based; conditions: Homo sapiens, HCT-116, 144 h, HCT116 WT cells, 6 days, CellTiter-Glo; read-out: HCT-116 WT IC50
pIC50: −log10 of the molar value.
PARAMETER: pIC50

Examples from the recorded data:
Req: pIC50 lookup needed for CN(Cc1ccc(C2CC2)cn1)C(=O)c1cc2c3c(c(N)nc2cc1Cl)COC3 [Example 478] , thanks.
Resp: 5.02

Req: What do you have for CN(Cc1ccc(C(F)F)cn1)C(=O)c1ccc2nc(N)c3cnn(C)c3c2c1 [Example 524] ?
Resp: 4.79

Req: Same for C[C@@H](c1ccc(C(F)(F)F)cc1)N(C)C(=O)c1cc2c(cn1)nc(N)c1cnn(C)c12 (single isomer, unassigned) [Example 599]
Resp: 4.57

Req: And the next one, C[C@H](c1ncccn1)N(Cc1ccc(C(F)(F)F)cn1)C(=O)c1cc2c3c(c(N)nc2cn1)COC3 [Example 621] ?
Resp: 5.91

Req: What would you report for CN(Cc1ccc(C(F)(F)F)cn1)C(=O)c1cc2c(cc1F)nc(N)c1cnn(C)c12 [Example 802] ?
Resp: 5.86

Req: Again, but for CN(Cc1ccc(C(F)(F)F)cn1)C(=O)c1cc2c(cn1)nc(N)c1cnn(C)c12 [Example 568]
Resp: 5.27

a. CCN(C(=O)c1cc2c(cc1F)nc(N)c1cnn(C)c12)[C@H](C)c1ccc(F)cn1 (single isomer, unassigned) [Example 875]
b. C[C@H](c1ccc(C(F)(F)F)cn1)N(C(=O)c1cc2c3c(c(N)nc2cn1)COC3)c1cnn(C)c1 (single isomer, unassigned) [Example 825]
Req: Compare reported pIC50 values for a and b . Which is lower? Please reply using the label of the selected record.
Resp: a

----------
test system: HCT116 WT cells; assay: HCT116 WT cell proliferation / viability (CellTiter-Glo, 6 days); assay type: cell-based; details: Homo sapiens, HCT-116, 144 h, HCT116 WT cells, 6 days, CellTiter-Glo; read-out: HCT-116 WT IC50
pIC50: −log10 of the molar value.
PARAMETER: pIC50

Recorded pIC50, per entry:
Req: Requested field: pIC50. Item: CC(c1ccc(C(F)(F)F)cn1)N(C)C(=O)c1ccc2nc(N)c3c(c2c1)COC3 (racemic)
Resp: 5.35

Req: Item: `C[C@H](c1ncccn1)N(Cc1ccc(Cl)cn1)C(=O)c1ccc2nc(N)c3c(c2c1)CCC3`
Resp: 6.81

P. CN(Cc1ccc(C(F)(F)F)cc1)C(=O)c1cc2c(cn1)nc(N)c1cnn(C)c12
Q. Cc1cc2nc(N)c3cnn(C)c3c2cc1C(=O)N(C)Cc1ccc(F)cn1
R. Cn1ncc2c(N)nc3cc(Cl)c(C(=O)N(Cc4ccc(C(F)(F)F)cn4)C4CCC4)cc3c21
S. C[C@H](c1ncccn1)N(Cc1ccc(C#N)cn1)C(=O)c1ccc2nc(N)c3c(c2c1)COC3
T. C[C@@H](c1ncc(F)cn1)N(CCOC(F)(F)F)C(=O)c1cc2c3c(c(N)nc2cc1F)COC3 (single isomer, unassigned)
Req: With regard to pIC50, arrange the entries in ascending order, please. Respond with an ordered listing of the labels, as requested.
Resp: T, Q, P, S, R

----------
test system: HCT116 WT cells; assay: HCT116 WT cell proliferation / viability (CellTiter-Glo, 6 days); type: cell-based; settings: Homo sapiens, HCT-116, 144 h, HCT116 WT cells, 6 days, CellTiter-Glo; read-out: HCT-116 WT IC50
pIC50: −log10 of the molar value.
PARAMETER: pIC50

Req: What value of pIC50 has been reported for the following compound? `CC(C)N(Cc1ccc(C(F)(F)F)cn1)C(=O)c1cc2c3c(c(N)nc2cn1)[C@@H](C)OC3`
Resp: 5.39

Req: Try this compound too: `Nc1nc2cc(F)c(C(=O)N(Cc3ccc(OC(F)F)nn3)C3CCC3)cc2c2c1COC2`
Resp: 6.06

Req: What about this compound? `C[C@H]1OCc2c1c(N)nc1ccc(C(=O)N(Cc3ccc(C(F)(F)F)cn3)CC(C)(C)C)cc21`
Resp: 5.23

Req: For Cc1noc2c1c(N)nc1ccc(C(=O)N(Cc3ccc(C(F)(F)F)cn3)C(C)c3ncccn3)cc12 (racemic) then?
Resp: 5.97

Req: Ok, now `N#Cc1ccc(CN(C(=O)c2cc3c4c(c(N)nc3cc2F)COC4)C2CC2)nc1`
Resp: 5.35

I. C[C@H]1OCc2c1c(N)nc1cnc(C(=O)N(Cc3ccc(C4CC4)cn3)C3CC3)cc21
II. C[C@H](c1ncccn1)N(Cc1ccc(C(F)(F)F)cn1)C(=O)c1ccc2nc(N)c3c(c2c1)OCC3
Req: Compare I and II by numeric pIC50 and name the larger one. # respond with the chosen item's label
Resp: II

a. CC(C)N(Cc1ccc(C(F)(F)F)cn1)C(=O)c1ccc2nc(N)c3ncncc3c2c1
b. C[C@H]1OCc2c1c(N)nc1cnc(C(=O)N(Cc3ccc(C(F)(F)F)cn3)c3cnn(C)c3)cc21 (single isomer, unassigned)
Req: Field: lower pIC50 | Options: a / b Write down the label attached to your selection.
Resp: a
(a: 5.19, b: 6.53)

----------
system: HCT116 WT cells; experiment: HCT116 WT cell proliferation / viability (CellTiter-Glo, 6 days); type: cell-based; conditions: Homo sapiens, HCT-116, 144 h, HCT116 WT cells, 6 days, CellTiter-Glo; read-out: HCT-116 WT IC50
PARAMETER: IC50 (nM)

The examples below pair each entry with its known result.
Req: Suppose we examine the compound `C[C@H]1OCc2c1c(N)nc1cnc(C(=O)N(C)Cc3ccc(C4CC4)cn3)cc21` ; what IC50 value has been reported?
Resp: 25100

Req: Another compound to check: `CN(Cc1ccc(S(F)(F)(F)(F)F)cc1)C(=O)c1cc2c(cc1F)nc(N)c1cnn(C)c12`
Resp: 354

Req: # iterate: `C[C@H]1OCc2c1c(N)nc1ccc(C(=O)N(Cc3ccc(Br)nn3)CC3CC3)cc21`
Resp: 1280

Req: Also `C[C@H](c1ncccn1)N(Cc1ccc(C#N)cn1)C(=O)c1cc2c3c(c(N)nc2cc1F)COC3` , if possible.
Resp: 187

Req: Okay, and `CCN(Cc1ccc(C(F)(F)F)cn1)C(=O)c1cc2c3c(c(N)nc2nc1Cl)COC3` ?
Resp: 5390

Req: Next record, please: CC1OCc2c1c(N)nc1ccc(C(=O)N(Cc3ccc(C#N)cn3)C(C)C3CCOCC3)cc21 (centres unmarked)
Resp: 1900

Req: Also `CN(Cc1ccc(C(F)(F)F)cc1)C(=O)c1cc2c(cc1Cl)nc(N)c1cnn(C)c12` , if possible.
Resp: 421

Req: Next up: `C[C@H](c1ncccn1)N(Cc1ccc(C(F)(F)F)cn1)C(=O)c1cnc2nc(N)c3c(c2c1)CCC3`
Resp: 444

a. CCN(C(=O)c1ccc2nc(N)c3c(c2c1)CO[C@@H]3C)[C@H](C)c1ccc(C#N)cn1 (single isomer, unassigned)
b. C[C@H](C1CC1)N(Cc1ccc(C(F)(F)F)nn1)C(=O)c1cc2c3c(c(N)nc2cc1F)COC3
Req: In the pair a and b , the larger recorded IC50 belongs to which? Indicate which entry you chose by stating its label.
Resp: a
(a: 6220 nM, b: 1170 nM)

1. CN(Cc1ccc(C(F)(F)C(F)(F)F)cc1)C(=O)c1cc2c(cc1F)nc(N)c1cnn(C)c12
2. Cn1cc(N(Cc2ccc(C(F)(F)F)cc2)C(=O)c2cc3c4c(c(N)nc3cn2)COC4)cn1 [Example 882, 2,2,2-trifluoroacetate]
3. CN(Cc1ccc(-c2ccc(C(F)(F)F)cc2)nn1)C(=O)c1ccc2nc(N)c3cnn(C)c3c2c1
Req: Sort (3 compounds) by IC50: min first. Output the labels ranked as instructed.
Resp: 2, 1, 3
(2: 1340 nM, 1: 2080 nM, 3: 6560 nM)

A. C[C@H]1OCc2c1c(N)nc1ccc(C(=O)N(C)Cc3ccc(C(F)(F)F)nn3)cc21
B. C[C@H](c1ccc(S(F)(F)(F)(F)F)cc1)N(C)C(=O)c1cc2c(cn1)nc(N)c1c2cnn1C (single isomer, unassigned)
Req: Kindly identify the item with the lower IC50 figure among these two: A and B Lab note: record the label of whichever item you select.
Resp: B

I. CC(C)N(C(=O)c1cc2c3c(c(N)nc2cc1F)COC3)[C@H](C)c1ccc(C(F)(F)F)cn1 (single isomer, unassigned)
II. CN(Cc1ccc(C(F)F)cn1)C(=O)c1cc2c(cc1F)nc(N)c1cnn(C)c12
III. CC(C)CN(Cc1ccc(C(F)(F)F)nn1)C(=O)c1ccc2nc(N)c3c(c2c1)COC3
IV. CCN(Cc1ccc(S(F)(F)(F)(F)F)cc1)C(=O)c1ccc2nc(N)c3cnn(C)c3c2c1
Req: Order the entries by their reported IC50, beginning at the minimum. # answer = labels listed in requested order
Resp: IV, III, II, I

1. C[C@H](c1ncccn1)N(Cc1ccc(Br)nn1)C(=O)c1cc2c3c(c(N)nc2cn1)COC3
2. Nc1nc2cc(F)c(C(=O)N(Cc3ccc(C(F)(F)F)nn3)CC3CC3)cc2c2c1COC2
Req: For the two items 1 and 2 , which reports the higher IC50 value? # respond with the chosen item's label
Resp: 1
(1: 3260 nM, 2: 620 nM)

I. CN(Cc1ccc(C(F)(F)F)nn1)C(=O)c1cc2c3c(c(N)nc2cc1Cl)COC3
II. CCN(C(=O)c1ccc2nc(N)c3c(c2c1)COC3)[C@H](C)c1ccc(C#N)cn1 (single isomer, unassigned)
Req: Determine, for I and II , which has the greater value of IC50. Respond using the label that marks the chosen record.
Resp: II
(II: 8590 nM, I: 3390 nM)

P. Nc1nc2ccc(C(=O)N(Cc3ccc(C(F)(F)F)cn3)Cc3ncccc3F)cc2c2ccsc12
Q. C[C@H](c1ccc(C(F)(F)F)nn1)N(C(=O)c1cc2c(cc1Cl)nc(N)c1cnn(C)c12)C1CC1 (single isomer, unassigned)
Req: Given the listed items, does P or Q have the lesser reported IC50? Respond using the label that marks the chosen record.
Resp: Q

1. CC(C)N(Cc1ccc(C(F)(F)F)cn1)C(=O)c1cc2c(cn1)nc(N)c1ccncc12
2. CC1OCc2c1c(N)nc1ccc(C(=O)N(Cc3ccc(C(F)(F)F)cn3)C3CC34CCCCC4)cc21 (centres unmarked)
Req: // select label with min value of measured IC50 from [ 1 , 2 ] Indicate your choice by writing its label.
Resp: 1

Source listed as patent US20240101570A1.
